System: Streptococcus pneumoniae ATCC 49619
assay: Broth microdilution MIC, S. pneumoniae ATCC 49619
Type: cell-based
assay_setup: ATCC49619, broth microdilution, 37° C., 20 hours, read-out: MIC S. pneumoniae ATCC 49619
Source text: Bacteria tested are Staphylococcus aureus NRS384 (a methicillin-resistant Staphylococcus aureus, MRSA), Staphylococcus aureus ATCC 29213 (a methicillin-sensitive Staphylococcus aureus, MSSA), Streptococcus pneumoniae ATCC 49619, Enterococcus faecalis ATCC 29212, Enterococcus faecium ATCC 700221 (a vancomycin-resistant enterococcus, VRE), Bacillus subtilis ATCC 6633, and Escherichia coli ATCC 25922. […]
Below: a set of entries, each annotated with reported MIC.
assay_endpoint: MIC

- molecule: "CNCCn1ncc2nc(NCc3ccc(Cl)c(Cl)c3)[nH]c(=O)c21"
  test_value: "16 µg/mL"
- molecule: "O=c1[nH]c(NCc2ccc(Cl)c(Cl)c2)nc2cnn(CCOC3CCS(=O)(=O)CC3)c12"
  test_value: "8 µg/mL"
- molecule: "Cl.O=C(c1nnc[nH]1)N1CCC(n2ncc3nc(NCc4ccc(Cl)c(Cl)c4)[nH]c(=O)c32)CC1"
  test_value: "4 µg/mL"
- molecule: "CN1CCCC(c2nc(Cn3ncc4nc(NCc5ccc(Cl)c(Cl)c5)[nH]c(=O)c43)co2)C1.Cl (stereo not shown)"
  test_value: "8 µg/mL"

* * *

Test system: Enterococcus faecalis ATCC 29212
assay: Broth microdilution MIC, E. faecalis ATCC 29212
Assay type: cell-based
assay_setup: ATCC29212, 20 h, read-out: MIC E. faecalis ATCC 29212
Where a name gives a salt, the structure may show the parent alone.
Below: a set of entries, each annotated with reported MIC.

- compound: "O=c1[nH]c(NCc2ccc(Cl)c(Cl)c2)nc2cnn(C3CCN(c4ccncc4)CC3)c12 [Compound 162, dihydrochloride]"
  censor_symbol: "="
  MIC (µg/mL): 4
- compound: "COP(=O)(O)OCCOCCn1ncc2nc(NCc3ccc(Cl)c(Cl)c3)[nH]c(=O)c21 [Compound 298]"
  censor_symbol: ">"
  MIC (µg/mL): 64
- compound: "O=c1[nH]c(NCc2ccc(Cl)c(Cl)c2)nc2cnn(C3CCNC3)c12 (stereo not shown) [Compound 216, TFA salt]"
  censor_symbol: "="
  MIC (µg/mL): 16
- compound: "CC(C)(C)OC(=O)N1C[C@H](O)C[C@H]1C(=O)N1CCC(n2ncc3nc(NCc4ccc(Cl)c(Cl)c4)[nH]c(=O)c32)CC1 [Compound 275]"
  censor_symbol: "="
  MIC (µg/mL): 16
- compound: "CN1CCC(n2ncc3nc(NCc4ccc(Cl)c(Cl)c4)[nH]c(=O)c32)C1 (stereo not shown) [Compound 243, TFA salt]"
  censor_symbol: "="
  MIC (µg/mL): 8
- compound: "COP(=O)(OC)OCCOCCn1ncc2nc(NCc3ccc(Cl)c(Cl)c3)[nH]c(=O)c21 [Compound 297]"
  censor_symbol: "="
  MIC (µg/mL): 16
- compound: "CC(C)(C)OC(=O)NCCOCCn1ncc2nc(NCc3ccc(Cl)c(Cl)c3)[nH]c(=O)c21 [Compound 100]"
  censor_symbol: ">"
  MIC (µg/mL): 64

* * *

Tested on: Streptococcus pneumoniae ATCC 49619
assay: Broth microdilution MIC, S. pneumoniae ATCC 49619
Format: cell-based
assay_setup: ATCC49619, broth microdilution, 37° C., 20 hours, read-out: MIC S. pneumoniae ATCC 49619
Below: a set of entries, each annotated with reported MIC.

- compound: "O=c1[nH]c(NCc2ccc(Cl)c(Cl)c2)nc2cnn(CCOCCO)c12"
  censor_symbol: "="
  MIC [µg/mL]: 2
- compound: "Cl.NCCOCCn1ncc2nc(NCc3ccc(Cl)c(Cl)c3)[nH]c(=O)c21"
  censor_symbol: "="
  MIC [µg/mL]: 4
- compound: "Cn1ncc2nc(NCc3cccc(Cl)c3)[nH]c(=O)c21"
  censor_symbol: "="
  MIC [µg/mL]: 16
- compound: "CC(C(=O)O)n1ncc2nc(NCc3ccc(Cl)c(Cl)c3)[nH]c(=O)c21 (centres unmarked)"
  censor_symbol: ">"
  MIC [µg/mL]: 64
- compound: "O=c1[nH]c(NCc2ccc(Cl)c(Cl)c2)nc2cnn(CCS(=O)(=O)CCO)c12"
  censor_symbol: "="
  MIC [µg/mL]: 4
- compound: "COc1ccnc(C(=O)N2CCC(n3ncc4nc(NCc5ccc(Cl)c(Cl)c5)[nH]c(=O)c43)CC2)c1.Cl"
  censor_symbol: "="
  MIC [µg/mL]: 2
- compound: "COC(=O)CCn1ncc2nc(NCc3ccc(Cl)c(Cl)c3)[nH]c(=O)c21"
  censor_symbol: "="
  MIC [µg/mL]: 4
- compound: "COC(=O)c1nn(C)c2c(=O)[nH]c(NCc3ccc(Cl)c(Cl)c3)nc12"
  censor_symbol: ">"
  MIC [µg/mL]: 64
- compound: "Cn1ncc2nc(NCc3ncc[nH]3)[nH]c(=O)c21"
  censor_symbol: ">"
  MIC [µg/mL]: 64
- compound: "Cn1ncc2nc(NCc3ccccn3)[nH]c(=O)c21"
  censor_symbol: ">"
  MIC [µg/mL]: 64
- compound: "CC(C)(C)NS(=O)(=O)CCn1ncc2nc(NCc3ccc(Cl)c(Cl)c3)[nH]c(=O)c21"
  censor_symbol: "="
  MIC [µg/mL]: 8
- compound: "O=C(O)CCn1cc2nc(NCc3ccc(Cl)c(Cl)c3)[nH]c(=O)c2n1"
  censor_symbol: "="
  MIC [µg/mL]: 32
- compound: "O=c1[nH]c(NCc2ccc(Cl)c(Cl)c2)nc2cn[nH]c12"
  censor_symbol: "="
  MIC [µg/mL]: 4
- compound: "COC/C=C/Cn1ncc2nc(NCc3ccc(Cl)c(Cl)c3)[nH]c(=O)c21"
  censor_symbol: "="
  MIC [µg/mL]: 4
- compound: "O=c1[nH]c(NCc2ccc(Cl)c(Cl)c2)nc2c(F)nn(CCOCCO)c12"
  censor_symbol: "="
  MIC [µg/mL]: 2
- compound: "Cn1ncc2nc(NCc3cccnn3)[nH]c(=O)c21"
  censor_symbol: ">"
  MIC [µg/mL]: 64
- compound: "O=c1[nH]c(NCc2ccc(Cl)c(Cl)c2)nc2cnn(CC3CCCO3)c12 (centres unmarked)"
  censor_symbol: "="
  MIC [µg/mL]: 4
